Target: human recombinant kinase full-length AKT1 E17K (Homo sapiens, UniProt P31749, E17K)
Construct: Purified human recombinant kinase full-length AKT1 E17K was expressed in insect cells
Sequence (P31749 whole entry E17K): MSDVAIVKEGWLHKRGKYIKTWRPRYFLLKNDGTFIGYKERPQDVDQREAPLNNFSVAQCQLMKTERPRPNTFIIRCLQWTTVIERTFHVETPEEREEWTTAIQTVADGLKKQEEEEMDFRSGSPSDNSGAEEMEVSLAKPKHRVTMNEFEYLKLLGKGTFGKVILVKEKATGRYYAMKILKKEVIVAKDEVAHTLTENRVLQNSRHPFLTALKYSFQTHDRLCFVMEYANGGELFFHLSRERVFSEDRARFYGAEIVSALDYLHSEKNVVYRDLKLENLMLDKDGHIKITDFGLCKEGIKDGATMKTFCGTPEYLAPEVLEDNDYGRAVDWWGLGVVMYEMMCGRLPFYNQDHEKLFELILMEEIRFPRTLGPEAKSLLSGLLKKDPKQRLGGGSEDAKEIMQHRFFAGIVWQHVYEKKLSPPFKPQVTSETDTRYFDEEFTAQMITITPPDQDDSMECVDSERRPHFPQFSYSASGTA
Test: AKT1 E17K kinase assay (TR-FRET, Lance)
Details: 0.6 nM AKT1 E17K, 50 nM Ulight-CREBtide, either 50 μM ATP or 2 mM ATP, 60 min at RT
Provide the recorded IC50 for the entries that follow.

Noted for Nc1ncccc1-c1nc2ccc(-c3ccccc3)nc2n1-c1ccc(C(=O)N[C@H]2CC[C@H](C(=O)O)CC2)cc1 : its IC50 reads < 500 nM

Noted for Cc1cc(C2CN(C[C@H]3CC[C@H](C(=O)O)CC3)C2)ccc1-n1c(-c2cccnc2N)nc2ccc(-c3ccccc3F)nc21 : its IC50 reads 500 to 2000 nM

Noted for NC(=O)N1CCC(CCc2ccc(-n3c(-c4cccnc4N)nc4ccc(-c5ccccc5)nc43)cc2F)CC1 : its IC50 reads 500 to 2000 nM

Noted for Nc1ncccc1-c1nc2ccc(-c3ccccc3)nc2n1-c1ccc(C2CN(C[C@H]3CC[C@@H](C(=O)O)CC3)C2)c(F)c1 : its IC50 reads 500 to 2000 nM

Noted for CC(C)(C)c1ccc2nc(-c3cccnc3N)n(-c3ccc(NC(=O)[C@H]4CC[C@H](C(=O)O)CC4)nc3)c2c1 : its IC50 reads ≥ 2000 nM

Noted for Nc1ncccc1-c1nc2ccc(-c3ccccc3)nc2n1-c1ccc(C2CN(C[C@@H]3CC[C@@H](C(=O)O)C3)C2)cc1 : its IC50 reads < 500 nM

Noted for Nc1ncccc1-c1nc2ccc(-c3ccccc3)nc2n1-c1ccc(C2CCN(C(=O)[C@H]3CC[C@@H](C(=O)O)CC3)CC2)cc1 : its IC50 reads < 500 nM

Noted for CC(C)(C(=O)O)C1CCN(c2ccc(-n3c(-c4cccnc4N)nc4ccc(-c5ccccc5)nc43)cn2)C1 (stereo not shown) : its IC50 reads ≥ 2000 nM

Noted for Cc1cc(CN(C)[C@H]2CC[C@@H](C(=O)O)CC2)ccc1-n1c(-c2cccnc2N)nc2ccc(-c3ccccc3)nc21 : its IC50 reads 500 to 2000 nM

Noted for CN(Cc1ccc(-n2c(-c3cccnc3N)nc3ccc(-c4ccccc4)nc32)cc1)[C@@H]1CC[C@@H](C(=O)O)C1 (stereo in doubt) [Compound I-171] : its IC50 reads < 500 nM

Noted for Cc1cc(C2CN(CC3CC4CC(C(=O)O)CC4C3)C2)ccc1-n1c(-c2cccnc2N)nc2ccc(-c3ccccc3)nc21 (stereo not shown) : its IC50 reads 500 to 2000 nM

Noted for Cc1nc(NCC2CC3(C2)CC(C(=O)O)C3)ccc1-n1c(-c2cccnc2N)nc2ccc(-c3ccccc3)nc21 (stereo not shown) : its IC50 reads < 500 nM

Noted for Nc1ncccc1-c1nc2cc(-c3ccccc3)cnc2n1-c1ccc(C2CN(C[C@H]3CC[C@H](C(=O)O)CC3)C2)cc1 : its IC50 reads ≥ 2000 nM

Noted for Nc1ncccc1-c1nc2ccc(-c3ccccc3)nc2n1-c1ccc(CN2CCC(C(=O)O)CC2)cc1 : its IC50 reads 500 to 2000 nM

Noted for CNC(=O)[C@H]1CC[C@H](N(C)Cc2ccc(-n3c(-c4cccnc4N)nc4ccc(-c5ccccc5)nc43)cc2)CC1 : its IC50 reads ≥ 2000 nM

Noted for Nc1ncccc1-c1nc2ccc(-c3ccccc3)nc2n1-c1ccc(C2CN(CC3CCC(CC(=O)O)CC3)C2)cc1 (stereo not shown) : its IC50 reads < 500 nM

Noted for Nc1ncccc1-c1nc2ccc(-c3ccccc3)nc2n1-c1ccc(NC(=O)C2CC3(CC(C(=O)O)C3)C2)c(F)c1 (stereo not shown) : its IC50 reads < 500 nM

Noted for CC(C)(N[C@@H]1CC[C@H](C(=O)O)C1)c1ccc(-n2c(-c3cccnc3N)nc3ccc(-c4ccccc4)nc32)cc1 : its IC50 reads ≥ 2000 nM

Noted for CC(C)(C(=O)O)C1CCN(Cc2ccc(-n3c(-c4cccnc4N)nc4ccc(-c5ccccc5)nc43)cc2)C1 (stereo not shown) : its IC50 reads 500 to 2000 nM

Noted for Nc1ncccc1-c1nc2ccc(-c3ccccc3)nc2n1-c1ccc(CN2CCC(CC(=O)O)C2)cc1 (stereo not shown) : its IC50 reads < 500 nM

Noted for CC(C(=O)O)C1CCN(Cc2ccc(-n3c(-c4cccnc4N)nc4ccc(-c5ccccc5)nc43)cc2)C1 (stereo not shown) : its IC50 reads 500 to 2000 nM

Noted for Cc1nc(NC[C@@H]2CC[C@@H](C(=O)O)C2)ccc1-n1c(-c2cccnc2N)nc2ccc(-c3ccccc3)nc21 : its IC50 reads 500 to 2000 nM
